target desc: Glucocorticoid receptor (Homo sapiens, UniProt P04150)
measurement notes: Transrepression activity of glucocorticoid receptor in human A549 cells expressing AP-1 assessed as inhibition of PMA-induced AP-1 activity by luciferase reporter gene assay
Type: cell-based
reported metric: EC50 (µM)

For orientation, consider the following solved cases.
CC(C)(C(=O)Nc1nccs1)[C@H]1c2ccccc2Oc2cc(O)ccc21    0.0175
CC(C)(C(=O)Nc1nccs1)C(c1ccccc1)c1ccc(O)cc1 (racemic)    0.0614
CC(C)(C(=O)Nc1nncs1)[C@H]1c2ccccc2Oc2cc(O)ccc21    0.0078

1. CC(C)(C(=O)Nc1nccs1)[C@@H](c1ccccc1)c1ccc(O)c(F)c1
2. CC(C)(C(=O)Nc1nccs1)[C@@H](c1ccccc1)c1ccc(O)c(Br)c1
3. CC(C)(C(=O)Nc1nccs1)[C@@H](c1ccccc1)c1ccc(O)c(C#N)c1
Incoming: Could you please sort these 3 entries by EC50 from high to low? # list labels per requested ordering
Outgoing: 3, 2, 1
(3: 0.506 µM, 2: 0.0401 µM, 1: 0.0159 µM)

* * *

target desc: Glucocorticoid receptor (Homo sapiens) (UniProt P04150)
measurement notes: Transactivation activity of glucocorticoid receptor ligand binding domain expressed in human NP-1 Hela cells co-expressing GAL4 DNA binding domain by luciferase reporter gene assay relative to Dexamethasone
Assay type: cell-based
reported metric: Efficacy (%)

CC(C)(C(=O)Nc1nccs1)[C@@H](c1ccccc1)c1ccc(O)c(F)c1    61

A. CC(C)(C(=O)Nc1nccs1)C(c1ccccc1)c1ccc(O)cc1 (racemic)
B. CC(C)(C(=O)Nc1nccs1)C(c1ccccc1)c1ccc(O)c(F)c1 (racemic)
Incoming: Which value of Efficacy is numerically greater: that of A or that of B ? State the label of the item chosen.
Outgoing: B

* * *

target desc: Glucocorticoid receptor (Homo sapiens) (UniProt P04150)
measurement notes: Transrepression activity of glucocorticoid receptor in human A549 cells assessed as inhibition of IL1beta-stimulated NFkappaB-dependent E-selectin transcription by luciferase reporter gene assay relative to Dexamethasone
Type: cell-based
reported metric: Efficacy (%)

For orientation, consider the following solved cases.
CC(C)(C(=O)Nc1nccs1)[C@H]1c2ccccc2Oc2cc(O)ccc21    68
CC(C)(C(=O)Nc1nccs1)[C@@H](c1ccccc1)c1ccc(O)c(Br)c1    71

I. CC(C)(C(=O)Nc1nncs1)[C@@H](c1ccccc1)c1ccc(O)c(Br)c1
II. CC(C)(C(=O)Nc1nccs1)C(c1ccccc1)c1ccc(O)cc1 (racemic)
Incoming: # query: argmin of Efficacy over I and II State the label of the item chosen.
Outgoing: II

* * *

target desc: Glucocorticoid receptor (Homo sapiens) (UniProt P04150)
Sequence (whole entry): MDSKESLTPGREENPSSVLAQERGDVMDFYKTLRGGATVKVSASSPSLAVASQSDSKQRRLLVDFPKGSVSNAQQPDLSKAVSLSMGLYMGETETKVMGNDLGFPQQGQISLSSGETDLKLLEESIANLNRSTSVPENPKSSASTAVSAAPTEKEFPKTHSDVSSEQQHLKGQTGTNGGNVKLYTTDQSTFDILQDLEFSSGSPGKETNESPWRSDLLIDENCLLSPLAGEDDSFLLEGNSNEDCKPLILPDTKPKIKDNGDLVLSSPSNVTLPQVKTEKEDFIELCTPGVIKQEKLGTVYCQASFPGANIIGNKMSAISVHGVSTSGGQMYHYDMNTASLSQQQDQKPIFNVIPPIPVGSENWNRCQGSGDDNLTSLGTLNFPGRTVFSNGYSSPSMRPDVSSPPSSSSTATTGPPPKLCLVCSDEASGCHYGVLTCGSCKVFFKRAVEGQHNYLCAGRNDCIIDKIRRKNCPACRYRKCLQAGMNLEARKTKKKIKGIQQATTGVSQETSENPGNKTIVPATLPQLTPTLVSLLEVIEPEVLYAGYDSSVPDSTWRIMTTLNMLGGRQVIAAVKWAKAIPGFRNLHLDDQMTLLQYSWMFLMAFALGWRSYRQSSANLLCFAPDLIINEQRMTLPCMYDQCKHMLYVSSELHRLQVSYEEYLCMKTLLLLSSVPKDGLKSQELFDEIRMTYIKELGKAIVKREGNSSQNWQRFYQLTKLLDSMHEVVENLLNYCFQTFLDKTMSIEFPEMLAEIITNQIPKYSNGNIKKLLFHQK
measurement notes: Transactivation activity at glucocorticoid receptor in human 13D3/Huh7 cells assessed as induction of tyrosine aminotransferase activity after 24 hrs relative to Dexamethasone
Type: cell-based
measurement conditions: Huh-7
reported metric: Efficacy (%)

CC(C)(C(=O)Nc1nccs1)C(c1ccccc1)c1ccc(O)cc1 (racemic)    20
CC(C)(C(=O)Nc1nncs1)[C@@H](c1ccccc1)c1ccc(O)c(Br)c1    57

a. CC(C)(C(=O)Nc1nccs1)C(c1ccccc1)c1ccc(O)c(F)c1 (racemic)
b. CC(C)(C(=O)Nc1nccs1)[C@@H](c1ccccc1)c1ccc(O)cc1
Incoming: # query: argmin of Efficacy over a and b State the label of the item chosen.
Outgoing: b
